System: U2932 parental
ASSAY_METHOD_TEXT: cell proliferation relative to vehicle (% of vehicle); higher = less growth inhibition
APPLIED_CONDITIONS: 500 nM; 72 h
Threshold check on cell proliferation: at or above 100 gives Met, strictly below gives Not met.

MOLECULE: NC1(c2ccc(-c3nc4ccn5c(=O)[nH]nc5c4cc3-c3ccccc3)cc2)CCC1
TARGET_OR_TEST_SYSTEM: U2932 parental
CAT: Not met

# ---- query molecule ----
Textbook exercise: given the entry `C[C@H](Nc1ncnc2nc[nH]c12)c1cc2cccc(Cl)c2c(=O)n1-c1ccccc1` , state whether its cell proliferation is greater than or equal to 100.
Met

Ref: the supplement of paper PMC13172266
